- assayNotes: soluble on expression in E. coli; label from the status in PepcDB or PDB records
observable: soluble on expression in E. coli

These solved cases illustrate the format of a correct answer.
MKERIVGQSGELFCFGQMPVWKVENLPEVLLSGYSSEEGEWVCLNVLQGDVEVRAPDGAAEVWSAESGDCVFAPQQVFSVKPKTDDAEIRLSLYCAAADYFHKKYGMSATHSAVAAAQDTVPAGRALDMGCGQGRNALFLGLKGFDVTAADCNPAALANVAELAEAEGLNVRTLEYDLNAAALQGEFDYIVATVVLMFLMPQRVPDVIADMQAHTAAGGYNLIVSAMDTADFPCPMPFPFKFKEGELKDYYRDWELVEYKEELGAMHAKDENGNPIRFKFVTMLAKKPGLEHHHHHH ... soluble
MGHHHHHHSHMRQRLLPSVTSLLLVALLFPGSSQARHVNHSATEALGELRERAPGQGTNGFQLLRHAVKRDLLPPRTPPYQGDVPPGIRNTICRMQQGICRLFFCHSGEKKRDICSDPWNRCCVSNTDEEGKEKPEMDGRSGI ... not soluble
MAHHHHHHMLSRVAAVKAPRTHNRRRVTGSSGRTREGGESEPRRPNMSRRVFPSAVLLLLVTMMCCDRGAATAQVEKATDASTPSGSALTGAITAEGSASGGVERPQRVDLFVPQTKQVLQKTGTDSGRRDSFVSPSLVSAGGVIAAFAEGHINAKNPIPNQLSRLLMLLRSTSTLRGNGPLLLKRSIKKEWSARTVLGKAEGNESFDVVRHPTTTMKGNKMFLLAGSTALSDLNGSWKEGSLEIKLVVGEVTKPTDSEQSKRIEWGEIKSPLNGSTLAAHKGNLTECLASGGSGVLMEDGTLVFSLMAVNEKNDGVYSMIIYSKDNGSTWALSEDISPAKCLNPRITEWEGSLLMIVDCENDQRV ... not soluble
MKVELQISETYEEEKLIVQAPQETEKVQKVIEFAENLDQREKIKGKIDDQVYLVEIGKIQRFYIENRKVLAETASQTYSIDLRLYQVLKLLPTNFIQISQSEIINIDSISHLKLTPNGLVEIFLKNESFTYSSRRYLKTIKEKLEL ... not soluble
AEPDTESSELSGSVSYRIVSVVNTITASHWDEKELLDKAELIDYPVRKCAHMSEYAILTLLGFLTFSFLHGRGRFLVPIGVTFLYACTDEFHQLFVPGRAGR ... not soluble
MSLQQGDRVPAGLTLTNQAGESFRIGDYRGQTLVLTFIYTRCPLPTYCPLMSKQFAALQPQLRERYGEEAQLLSISFDPAYDTPQVLREYASKYTDRLDTWTFATGDSSQVERATGLFGVHAQKTGSEEITHNLTTALIGSEGHVRRLWRGNDWTPEDVRQAVAQVAEASEGHHHHHH ... soluble
GSVSPTFQVVNSFAPVQECSTQLDIVIVLDGSNSIYPWESVIAFLNDLLKRMDIGPKQTQVGIVQYGENVTHEFNLNKYSSTEEVLVAANKIVQRGGRQTMTALGIDTARKEAFTEARGARRGVKKVMVIVTDGESHDNYRLKQVIQDCEDENIQRFSIAILGHYNRGNLSTEKFVEEIKSIASEPTEKHFFNVSDELALVTIVKALGERIFALEALERPHRD ... soluble

Now consider a different sequence.
Q: Query soluble on expression in E. coli for GPGSMERTPTARIRDVIDSQLALRSSGFLPGNSTPDQLLHLRAAVHRNAPQHRTAAYFVDHANAFGTVGPDAVILEMRRLSIPNRIARWSAACLNSTSAVVCIDKLTPSSRTLTRGAPQGTVLAPIMFVVVMQSRCSCPSNVPYFAEGSSLMTALSPHSRATGMRSTRPQKKA
Ans: not soluble
